target: Factor X, P00742
Sequence (P00742 whole entry, looked up): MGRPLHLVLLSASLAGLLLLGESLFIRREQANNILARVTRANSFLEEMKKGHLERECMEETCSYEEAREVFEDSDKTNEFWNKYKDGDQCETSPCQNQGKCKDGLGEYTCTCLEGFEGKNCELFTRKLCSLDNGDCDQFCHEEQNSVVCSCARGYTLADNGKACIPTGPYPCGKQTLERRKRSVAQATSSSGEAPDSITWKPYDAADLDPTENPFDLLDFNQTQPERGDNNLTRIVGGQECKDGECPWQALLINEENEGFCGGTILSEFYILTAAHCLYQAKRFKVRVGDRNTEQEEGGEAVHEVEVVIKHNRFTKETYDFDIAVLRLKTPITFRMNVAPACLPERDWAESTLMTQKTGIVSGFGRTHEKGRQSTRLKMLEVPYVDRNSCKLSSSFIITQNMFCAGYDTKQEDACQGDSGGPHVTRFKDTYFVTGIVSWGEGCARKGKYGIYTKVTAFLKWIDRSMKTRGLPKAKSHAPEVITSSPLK
Hi there, I'd appreciate the recorded % of WT kcat/KM for every entry that follows.
State just the number; it will be interpreted in %.

Data request: Annotate the protein FIXa-K228N/R338E/R403E (mature FIX numbering) (protein) chain 1: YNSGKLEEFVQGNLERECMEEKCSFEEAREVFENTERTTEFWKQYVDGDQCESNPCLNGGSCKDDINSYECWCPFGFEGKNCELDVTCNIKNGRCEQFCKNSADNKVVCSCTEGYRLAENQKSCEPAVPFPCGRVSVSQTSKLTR chain 2: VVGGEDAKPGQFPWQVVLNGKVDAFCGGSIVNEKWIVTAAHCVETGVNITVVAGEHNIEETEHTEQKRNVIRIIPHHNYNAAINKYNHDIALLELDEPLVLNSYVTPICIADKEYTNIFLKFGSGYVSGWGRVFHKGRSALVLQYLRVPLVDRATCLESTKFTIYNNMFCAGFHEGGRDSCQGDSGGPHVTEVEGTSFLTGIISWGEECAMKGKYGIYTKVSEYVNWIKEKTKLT with its measured % of WT kcat/KM.
Data returned: 108

Data request: Give me measured % of WT kcat/KM, please, for this protein: FIXa-D104N/K106S/R318Y/R338E/E410N (mature FIX numbering) (protein) chain 1: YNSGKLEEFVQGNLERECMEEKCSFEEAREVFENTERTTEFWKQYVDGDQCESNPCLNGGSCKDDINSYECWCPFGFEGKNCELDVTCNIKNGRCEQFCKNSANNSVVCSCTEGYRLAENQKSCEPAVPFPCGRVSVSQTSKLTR chain 2: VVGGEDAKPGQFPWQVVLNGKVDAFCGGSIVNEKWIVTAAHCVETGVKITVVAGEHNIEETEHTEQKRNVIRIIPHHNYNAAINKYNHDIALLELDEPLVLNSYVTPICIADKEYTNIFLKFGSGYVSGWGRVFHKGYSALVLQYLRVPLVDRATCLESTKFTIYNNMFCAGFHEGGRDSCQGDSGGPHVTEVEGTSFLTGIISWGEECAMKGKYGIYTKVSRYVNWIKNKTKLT
Data returned: 581

Data request: // Input: FIXa R318Y/R338E/Y345A/R403E/E410N (protein) chain 1: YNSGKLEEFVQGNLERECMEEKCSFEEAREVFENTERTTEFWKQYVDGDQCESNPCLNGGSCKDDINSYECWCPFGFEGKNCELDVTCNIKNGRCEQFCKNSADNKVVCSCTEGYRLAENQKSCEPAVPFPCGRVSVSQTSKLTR chain 2: VVGGEDAKPGQFPWQVVLNGKVDAFCGGSIVNEKWIVTAAHCVETGVKITVVAGEHNIEETEHTEQKRNVIRIIPHHNYNAAINKYNHDIALLELDEPLVLNSYVTPICIADKEYTNIFLKFGSGYVSGWGRVFHKGYSALVLQYLRVPLVDRATCLESTKFTIANNMFCAGFHEGGRDSCQGDSGGPHVTEVEGTSFLTGIISWGEECAMKGKYGIYTKVSEYVNWIKNKTKLT . Output its % of WT kcat/KM only.
Data returned: 180

Data request: Supply recorded % of WT kcat/KM for FIXa-K228N/R318Y/R338E/R403E/E410N (protein) chain 1: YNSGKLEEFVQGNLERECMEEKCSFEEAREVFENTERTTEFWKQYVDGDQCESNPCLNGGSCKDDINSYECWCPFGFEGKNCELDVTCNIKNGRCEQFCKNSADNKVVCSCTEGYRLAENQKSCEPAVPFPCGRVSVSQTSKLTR chain 2: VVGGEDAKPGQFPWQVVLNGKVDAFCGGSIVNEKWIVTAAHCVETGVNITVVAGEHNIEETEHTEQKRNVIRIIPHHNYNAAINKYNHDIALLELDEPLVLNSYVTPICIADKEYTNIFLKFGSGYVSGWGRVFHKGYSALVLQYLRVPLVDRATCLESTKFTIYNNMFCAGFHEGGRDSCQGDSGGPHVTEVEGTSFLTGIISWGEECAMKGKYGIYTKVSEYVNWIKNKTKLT here.
Data returned: 349
